TGT: T1, C-terminal domain-deleted human Regnase-1 (amino acids 1 to 546) with N-terminal FLAG tag and C-terminal BirA … (human, UniProt Q5D1E8 1-546)
T1 sequence: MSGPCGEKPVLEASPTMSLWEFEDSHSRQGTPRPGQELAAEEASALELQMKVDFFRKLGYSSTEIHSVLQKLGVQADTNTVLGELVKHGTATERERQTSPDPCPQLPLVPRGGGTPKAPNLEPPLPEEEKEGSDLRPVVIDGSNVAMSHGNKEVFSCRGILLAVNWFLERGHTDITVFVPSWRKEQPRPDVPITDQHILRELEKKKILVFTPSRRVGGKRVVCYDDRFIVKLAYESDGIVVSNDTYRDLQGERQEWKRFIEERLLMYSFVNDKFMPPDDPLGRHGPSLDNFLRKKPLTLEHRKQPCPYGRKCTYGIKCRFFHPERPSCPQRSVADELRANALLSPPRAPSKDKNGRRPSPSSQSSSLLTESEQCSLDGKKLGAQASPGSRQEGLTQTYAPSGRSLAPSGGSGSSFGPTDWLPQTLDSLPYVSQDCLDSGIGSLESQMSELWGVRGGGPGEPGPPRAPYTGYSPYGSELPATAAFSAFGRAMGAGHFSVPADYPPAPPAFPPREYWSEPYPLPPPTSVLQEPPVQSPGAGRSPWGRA
MEASUREMENT DESCRIPTION: cell-based or functional assay
Positions of bridges follow the written chain, without caps; N, C: chain ends. Non-standard residues stand in square brackets, D forms with d. *: point of attachment. NMeA = CN[C@@H](C)C(=O)O; Pyrrolidide = C1CCN(*)C1
TEST READOUT: 50% inhibition concentration, Regnase-1 phosphorylation by TBK1 (AlphaScreen) (µM)
Report the figure in µM without appending any unit label.

## Task So what does the record say about 50% inhibition concentration, Regnase-1 phosphorylation by TBK1 (AlphaScreen) for [NMeA]YIWDFFGDLD-Pyrrolidide (lactam N-11) [PP4] ?
## Result 44.9
